For each record, write down the corresponding Ratio CC50/EC50.
- method.summary: Selectivity index, ratio of CC50 for HepG2.2.15 cells to EC50 for HBV ayw1 infected in human HepG2(2.2.15) cells assessed as reduction in viral replication by measuring extracellular viral DNA copy

Challenge: Specify Ratio CC50/EC50 for `Cc1cn(C[C@H](CF)OCP(=O)(O)O)c(=O)[nH]c1=O` and stop.
Response given: 1

Challenge: Specify Ratio CC50/EC50 for `Nc1nc(O)c2ncn(C[C@@H](CF)OCP(=O)(O)O)c2n1` and stop.
Response given: >169

Challenge: Specify Ratio CC50/EC50 for CCCCCOC(=O)C[C@H](NP(=O)(CO[C@@H](CF)Cn1cnc2c(=O)[nH]c(N)nc21)Oc1ccccc1)C(=O)OCCCCC (stereo partly drawn) and stop.
Response given: >5000

Challenge: Specify Ratio CC50/EC50 for CCCCCOC(=O)C[C@H](NP(=O)(CO[C@H](CF)Cn1cnc2c(N)ncnc21)Oc1ccccc1)C(=O)OCCCCC (stereo partly drawn) and stop.
Response given: 2256

Challenge: Specify Ratio CC50/EC50 for CCCCCOC(=O)C[C@H](NP(=O)(CO[C@@H](CF)Cn1cnc2c(N)ncnc21)Oc1ccccc1)C(=O)OCCCCC (stereo partly drawn) and stop.
Response given: 31

Challenge: Specify Ratio CC50/EC50 for CCCCCOC(=O)C[C@H](NP(=O)(CO[C@H](CF)Cn1cnc2c(=O)[nH]c(N)nc21)Oc1ccccc1)C(=O)OCCCCC (stereo partly drawn) and stop.
Response given: >769

Challenge: Specify Ratio CC50/EC50 for C=C1[C@H](CO)[C@@H](O)C[C@@H]1n1cnc2c(=O)[nH]c(N)nc21.O [ENTECAVIR] and stop.
Response given: >2381

Challenge: Specify Ratio CC50/EC50 for `Nc1nc(O)c2ncn(C[C@H](CF)OCP(=O)(O)O)c2n1` and stop.
Response given: >204
